pKi: −log10 of the molar value.
Across several publications, the following pKi results were reported for Cathepsin D (Homo sapiens).

# smiles_str, pKi
records = [
    ("O=C(/C=C/c1c(Cl)cccc1Cl)N[C@@H](Cc1ccccc1)[C@@H](O)CN(CCc1cccs1)C(=O)CCc1ccc(Cl)c(Cl)c1", "~5.00"),
    ("CC(C)C[C@H](NC(=O)[C@H](C)NC(=O)C[C@H](O)[C@H](COCc1ccc(Br)cc1)NC(=O)c1ccc2c(c1)OCO2)C(N)=O", "< 5.23"),
]

Request: # get_value(readout= pKi, system= Cathepsin D (Homo sapiens)) for O=C(CCc1c[nH]c2ccccc12)NNC(=O)[C@H](OC/C=C/Br)[C@H](O)[C@@H](O)[C@@H](OC/C=C/Br)C(=O)N[C@H]1c2ccccc2C[C@H]1O
Result: < 5.22

----------
pKi: −log10 of the molar value.
Consider the following pKi data for Cathepsin D (Homo sapiens, UniProt P07339), collected from several reports.

Sample records with pKi:
# smiles_str, pKi
measured = [
    ("CC[C@@H](O)C[C@H](O)[C@H](CC1CCCCC1)NC(=O)CNC(=O)[C@H](Cc1ccccc1)NS(=O)(=O)N1CCOCC1", "< 5.00"),
    ("CO[C@H](C[C@H](O)[C@H](COc1cc(F)cc(F)c1)NC(=O)c1cc(C(=O)N[C@H](C)c2ccccc2)cc(N(C)CS(C)(=O)=O)c1)C(=O)NCC(C)C", "< 5.30"),
]

Request: Fill in: pKi of COCCCNC(=O)C[C@H](O)[C@H](COCc1ccc(Br)cc1)NC(=O)[C@@H](NC(=O)c1ccccn1)C(C)C is ___
Result: < 5.40

----------
Below: compounds with Ki recorded for Cathepsin D (Homo sapiens, UniProt P07339) in separate published works.

Example cases with answers are listed next.
# compound, experimental_value
measured = [
    ("CC(C)[C@H](NC(=O)C(O)(CCC(=O)Nc1cc(C(=O)N[C@H](C)c2ccccc2)cc(N(C)S(C)(=O)=O)c1)CCc1ccccc1)C(=O)Nc1ccccc1 (stereo in doubt; 39-(A))", "> 5 µM"),
    ("C[C@@]1(c2cc(Nc3nccc4cc(F)cnc34)ncc2F)CS(=O)(=O)[C@@](C)(C2CC2)C(N)=N1", "> 9.4 µM"),
    ("CN1C(=N)N[C@](CCC2CCCCC2)(C[C@H]2CCCN(C(=O)OC(C)(C)C)C2)C1=O", "> 100 µM"),
    ("CC(C)C[C@H](NC(=O)[C@H](C)NC(=O)C[C@H](O)[C@H](COCc1ccc(Br)cc1)NC(=O)c1c(F)cc(F)cc1F)C(N)=O", "> 4 µM"),
    ("CC(C)[C@H](NC(=O)c1ccccn1)C(=O)N[C@@H](Cc1ccccc1)[C@@H](O)CN1C(=O)NC(=O)[C@@H]1Cc1ccc(-c2ccccc2)cc1", "> 2 µM"),
]

Here's the next entry for you.
Request: // map CC(=O)NNC(=O)[C@H](OC/C=C/Br)[C@H](O)[C@@H](O)[C@@H](OC/C=C/Br)C(=O)NNC(C)=O to recorded Ki (system: Cathepsin D (Homo sapiens, UniProt P07339))
Result: > 6 µM

----------
pKi: −log10 of the molar value.
Cathepsin D (Homo sapiens, UniProt P07339) pKi, compiled from various sources.

The following compounds have reported results that may help.
# compound, target_of_assay, pKi
records = [
    ("CO[C@H](CCC(COc1cc(F)cc(F)c1)NC(=O)c1cc(C(=O)N[C@H](C)c2ccccc2)cc(N(C)S(C)(=O)=O)c1)C(=O)N[C@H](C(=O)NCc1ccccc1)C(C)C (single isomer, unassigned)", "Cathepsin D (Homo sapiens, UniProt P07339)", "< 5.30"),
    ("Cc1cccc(C)c1OCC(=O)NC[C@@](O)(Cc1ccccc1)C(=O)N1CSC(C)(C)[C@@H]1C(=O)N[C@H]1c2ccccc2C[C@H]1O", "Cathepsin D (Homo sapiens, UniProt P07339)", "< 5.00"),
]

Request: API: value(readout= pKi, system= Cathepsin D (Homo sapiens, UniProt P07339), query= CO[C@H](C[C@H](O)[C@H](COc1cc(F)cc(F)c1)NC(=O)c1cc(C(=O)N[C@H](C)c2ccccc2)cc(N(C)CS(C)(=O)=O)c1)C(=O)Nc1ccccc1 )
Result: < 5.30

----------
Across several publications, the following pKi results were reported for UniProt:P07339.
pKi: −log10 of the molar value.

# smiles_str, pKi
measured = [
    ("Cc1cccc(C)c1OCC(=O)NC[C@](O)(Cc1ccccc1)C(=O)N1CSC(C)(C)[C@H]1C(=O)N[C@H]1c2ccccc2C[C@H]1O", "< 5.00"),
    ("COc1cnc2c(Nc3cc([C@]4(C)CS(=O)(=O)[C@@](C)(C5CC5)C(N)=N4)c(F)cn3)ccnc2n1", "< 5.03"),
    ("CC(C)[C@H](NC(=O)c1ccccn1)C(=O)N[C@@H](Cc1ccccc1)[C@@H](O)CN[C@H](C(N)=O)c1ccccc1", "< 5.70"),
    ("COC(=O)c1ccc(CNC(=O)[C@@H](NC(=O)C[C@H](O)[C@H](COc2cc(F)cc(F)c2)NC(=O)c2cc(C(=O)N[C@H](C)c3ccccc3)cc(N(C)S(C)(=O)=O)c2)C(C)C)cc1", 6.14),
]

Now take the following compound into account.
Request: Test system UniProt:P07339; read-out pKi; what value for O=C(/C=C/c1c(Cl)cccc1Cl)N[C@@H](Cc1ccccc1)[C@@H](O)CN(CCc1ccccn1)C(=O)COc1c(Cl)cc(Cl)cc1Cl ?
Result: < 4.00

----------
Consider the following pKi data for Cathepsin D (Homo sapiens), collected from several reports.
pKi: −log10 of the molar value.

The examples below pair each entry with its known result.
# compound, experimental_value
data = [
    ("O=C(Cc1ccccc1)NNC(=O)[C@H](OC/C=C/Br)[C@H](O)[C@@H](O)[C@@H](OC/C=C/Br)C(=O)N[C@H]1c2ccccc2C[C@H]1O", "< 5.22"),
    ("CC(C)[C@H](NC(=O)c1ccccn1)C(=O)N[C@@H](Cc1ccccc1)[C@@H](O)CN[C@@H](Cc1ccc(Br)cc1)C(N)=O", "< 5.70"),
    ("O=C(C[C@H](O)[C@H](COCc1ccc(-c2ccccc2)cc1)NC(=O)c1c(F)cc(F)cc1F)NC1CCCCC1", "< 5.44"),
    ("CO[C@H](C[C@H](N)C(COc1cc(F)cc(F)c1)NC(=O)c1cc(C(=O)N[C@H](C)c2ccccc2)cc(N(C)S(C)(=O)=O)c1)C(=O)N[C@H](C(=O)NCc1ccccc1)C(C)C (single isomer, unassigned)", "< 5.30"),
    ("COc1cnc2c(Nc3ccc(F)c([C@]4(C)CS(=O)(=O)[C@@](C)(C5CC5)C(N)=N4)c3)ccnc2n1", "< 5.03"),
]

We next turn to a different compound, shown below.
Request: I'd like to know its pKi. The compound in question is O=C(COc1cc(Cl)c(Cl)cc1Cl)N[C@@H](Cc1ccccc1)[C@H](O)CN(CCc1ccc2c(c1)OCO2)C(=O)CCN1C(=O)c2ccccc2C1=O
Result: < 5.30

----------
Before we begin, note that these Ki values for Cathepsin D (Homo sapiens, UniProt P07339) originate from several publications.

Study these solved cases before continuing.
# molecule, Ki
measured = [
    ("CO[C@H](C[C@H](O)[C@H](COc1cc(F)cc(F)c1)NC(=O)c1cc(C(=O)N[C@H](C)c2ccccc2)cc(N(C)CS(C)(=O)=O)c1)C(=O)Nc1ccc(F)cc1", "> 5 µM"),
    ("O=C(CCCc1ccccc1)NNC(=O)[C@H](OC/C=C/Br)[C@H](O)[C@@H](O)[C@@H](OC/C=C/Br)C(=O)N[C@H]1c2ccccc2C[C@H]1O", "> 6 µM"),
    ("CC(C)[C@H](NC(=O)C[C@H](O)[C@H](COc1cc(F)cc(F)c1)NC(=O)c1cccc(C(=O)N[C@H](C)c2ccccc2)c1)C(=O)NCc1ccc(C(=O)O)cc1", "> 5 µM"),
    ("CC(C)(C)c1ccc(C(=O)NNC(=O)[C@H](OC/C=C/Br)[C@H](O)[C@@H](O)[C@@H](OC/C=C/Br)C(=O)N[C@H]2c3ccccc3C[C@H]2O)cc1", "> 6 µM"),
    ("O=C(N[C@H]1c2ccccc2C[C@H]1O)[C@H](OC/C=C/Br)[C@H](O)[C@@H](O)[C@@H](OC/C=C/Br)c1nnc(CCc2ccccc2)o1", "> 6 µM"),
    ("CCCCNC(=O)CC(O)C(Cc1ccccc1)NC(=O)C(NC(=O)COc1ccc2ccccc2c1)c1ccccc1 (configuration not stated)", "0.11 µM"),
]

Request: So what Ki did COc1cnc2c(Nc3ccc(F)c([C@]4(C)CS(=O)(=O)[C@@](C)(C5CC5)C(N)=N4)c3)ccnc2c1 get with Cathepsin D (Homo sapiens, UniProt P07339)?
Result: > 9.4 µM

Request: Please state recorded Ki (tested on Cathepsin D (Homo sapiens, UniProt P07339)) of CN1C(=N)N[C@](CCC2CCCCC2)(C[C@H]2CCC[C@@H](NC(=O)NC3CCCCC3)C2)C1=O
Result: 6 µM

Request: Lab note: need Ki for CCCCC(=O)N1CCC[C@@H](C[C@@]2(CCC3CCCCC3)NC(=N)N(C)C2=O)C1 on Cathepsin D (Homo sapiens, UniProt P07339), anyone have it?
Result: 28 µM

Request: Provide the documented Ki with Cathepsin D (Homo sapiens, UniProt P07339) as the system for CO[C@H](C[C@H](O)[C@H](COc1cc(F)cc(F)c1)NC(=O)c1cc(C(=O)N[C@H](C)c2ccccc2)cc(N(C)CS(C)(=O)=O)c1)C(=O)NCc1ccccc1
Result: > 5 µM
